# Target Desc: human FPR1 (Homo sapiens (Human))
# Procedure Text: FPR1 cyclic adenosine monophosphate (cAMP) assay
# Condition Context: CHO cells overexpressing human FPR1; forskolin 10 μM, IBMX 200 μM; inhibition of cAMP production, HTRF; read-out: hFPR1 cAMP EC50
pEC50: −log10 of the molar value.
Measured Property: pEC50

A: CCP(=O)(CC)c1ccccc1-c1ccc(N2CC[C@@H](NC(=O)Nc3ccc(Cl)cc3F)C2=O)c(F)c1F [Example 75]
B: CP(C)(=O)c1c(F)cccc1-c1ccc(N2CC[C@@H](NC(=O)Nc3ccc(Cl)cc3F)C2=O)c(F)c1Cl [Example 85]
C: N#Cc1ccccc1-c1ccc(N2CC[C@@H](NC(=O)Nc3ccc(Cl)cc3)C2=O)c(F)c1F [Example 8]
D: N#Cc1ccccc1-c1ccc(N2CC[C@@H](NC(=O)Nc3ccc(Cl)cc3F)C2=O)c(F)c1F [Example 9]
Arrange the 4 compounds from largest to smallest pEC50. // format: requested-order list of labels
B, D, C, A
(B: 8.29, D: 7.51, C: 7.21, A: 5.93)

---

# Target Desc: human FPR1 (Homo sapiens (Human))
# Procedure Text: FPR1 cyclic adenosine monophosphate (cAMP) assay
# Condition Context: CHO cells overexpressing human FPR1; forskolin 10 μM, IBMX 200 μM; inhibition of cAMP production, HTRF; read-out: hFPR1 cAMP EC50
pEC50: −log10 of the molar value.
Measured Property: pEC50

Molecule: CP(C)(=O)c1c(F)cccc1-c1ccc(N2CC[C@@H](NC(=O)Nc3ccc(C(F)(F)F)cc3F)C2=O)c(F)c1F
Target Desc: human FPR1 (Homo sapiens (Human))
pEC50: 7.27

I: CP(C)(=O)c1ccccc1-c1ccc(N2CC[C@@H](NC(=O)Nc3ccc(C(F)(F)F)cc3F)C2=O)c(Cl)c1F
II: CC(C)c1cc(-c2cccnc2NS(C)(=O)=O)ccc1N1CC[C@@H](NC(=O)Nc2ccc(Cl)cc2F)C1=O
Given the listed items, does I or II have the lesser reported pEC50? Answer = label.
I

A: O=C(Nc1ccc(Cl)cc1)N[C@@H]1CCN(c2ccc(-c3cccnc3F)c(F)c2F)C1=O
B: CC1C[C@@H](NC(=O)Nc2ccc(Cl)cc2F)C(=O)N1c1ccc(-c2cccnc2P(C)(C)=O)c(F)c1F (some centres unmarked) [Example 121]
I need your help: which of the pair A , B has higher pEC50? Answer = label.
B

---

# Target Desc: human FPR1 (Homo sapiens (Human), UniProt P21462)
# Sequence (P21462 whole entry): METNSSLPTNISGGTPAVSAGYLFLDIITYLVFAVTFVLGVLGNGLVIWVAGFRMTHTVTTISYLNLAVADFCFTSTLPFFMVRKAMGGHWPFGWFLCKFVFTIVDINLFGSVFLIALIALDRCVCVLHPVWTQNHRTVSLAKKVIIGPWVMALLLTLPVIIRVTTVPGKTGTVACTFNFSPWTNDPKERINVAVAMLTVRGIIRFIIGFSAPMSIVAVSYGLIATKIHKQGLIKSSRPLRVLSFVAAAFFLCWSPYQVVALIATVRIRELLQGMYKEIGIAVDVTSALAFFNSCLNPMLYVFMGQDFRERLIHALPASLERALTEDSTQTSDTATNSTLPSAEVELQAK
# Procedure Text: FPR1 cyclic adenosine monophosphate (cAMP) assay
# Condition Context: CHO cells overexpressing human FPR1; forskolin 10 μM, IBMX 200 μM; inhibition of cAMP production, HTRF; read-out: hFPR1 cAMP EC50
pEC50: −log10 of the molar value.
Measured Property: pEC50

Compound: CP(C)(=O)c1ccccc1-c1ccc(N2CC[C@@H](NC(=O)Nc3ccc(Cl)cc3F)C2=O)c2c1OC(F)(F)O2 [Example 106]
Target Desc: human FPR1 (Homo sapiens (Human), UniProt P21462)
Measured Property: pEC50
Recorded Number: 8.46

I: CP(C)(=O)c1ccccc1-c1ccc(N2CC[C@@H](NC(=O)Nc3ccc(Cl)cc3F)C2=O)c(C2CC2)c1F [Example 117]
II: CP(C)(=O)c1ccccc1-c1ccc(N2CC[C@@H](NC(=O)Nc3ccc(OC(F)(F)F)cc3)C2=O)c(F)c1F [Example 51]
Given the listed items, does I or II have the lesser reported pEC50? Answer = label.
II

---

# Target Desc: human FPR2 (Homo sapiens (Human), UniProt P25090)
# Sequence (P25090 whole entry): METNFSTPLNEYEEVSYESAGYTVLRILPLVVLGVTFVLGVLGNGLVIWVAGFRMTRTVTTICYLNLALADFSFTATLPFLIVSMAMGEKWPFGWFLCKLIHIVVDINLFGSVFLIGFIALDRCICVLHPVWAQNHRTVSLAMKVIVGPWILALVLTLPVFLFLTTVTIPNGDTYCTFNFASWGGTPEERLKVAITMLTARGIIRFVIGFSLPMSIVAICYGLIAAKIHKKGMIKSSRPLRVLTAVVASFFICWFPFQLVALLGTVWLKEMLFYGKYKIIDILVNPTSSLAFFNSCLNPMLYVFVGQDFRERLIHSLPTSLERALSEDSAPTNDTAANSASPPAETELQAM
# Procedure Text: FPR2 cyclic adenosine monophosphate (cAMP) assay
# Condition Context: CHO cells overexpressing human FPR2; forskolin 5 μM, IBMX 200 μM; inhibition of cAMP production, HTRF; read-out: hFPR2 cAMP2 EC50
# Experimental: FPR2 and FPR1 Cyclic Adenosine Monophosphate (cAMP) Assays. […] The level of intracellular cAMP was determined using the HTRF HiRange cAMP assay reagent kit (Cisbio) according to manufacturer's instruction. […] After a 1-h room temperature incubation, time-resolved fluorescence intensity was measured using the Envision (Perkin-Elmer) at 400 nm excitation and dual emission at 590 nm and 665 nm. […]
Measured Property: EC50 (nM)

Compound: CC1(C)CN(c2ccc(-c3ccccc3P(C)(C)=O)c(F)c2F)C(=O)[C@@H]1NC(=O)Nc1ccc(C(F)(F)F)cc1F [Example 102]
Target Desc: human FPR2 (Homo sapiens (Human), UniProt P25090)
Measure Unit: nM
Recorded Number: 1.7
//
Compound: CP(C)(=O)c1ccccc1-c1ccc(N2CC[C@@H](NC(=O)Nc3ccc(OC(F)(F)F)cc3F)C2=O)c(F)c1F [Example 69]
Target Desc: human FPR2 (Homo sapiens (Human), UniProt P25090)
Measure Unit: nM
Recorded Number: 22

I: CP(C)(=O)c1ccccc1-c1ccc(N2CC[C@@H](NC(=O)Nc3ccc(Cl)cc3F)C2=O)c(C2CC2)c1F [Example 117]
II: CS(=O)(=O)Nc1ccccc1-c1ccc(N2CC[C@@H](NC(=O)Nc3ccc(Cl)cc3F)C2=O)c(F)c1 [Example 32]
Given the listed items, does I or II have the lesser reported EC50? Answer = label.
II

---

# Target Desc: human FPR2 (Homo sapiens (Human))
# Procedure Text: FPR2 cyclic adenosine monophosphate (cAMP) assay
# Condition Context: CHO cells overexpressing human FPR2; forskolin 5 μM, IBMX 200 μM; inhibition of cAMP production, HTRF; read-out: hFPR2 cAMP2 EC50
pEC50: −log10 of the molar value.
Measured Property: pEC50

Compound: COc1c(N2CC[C@@H](NC(=O)Nc3ccc(Cl)cc3F)C2=O)ccc(-c2ccccc2NS(C)(=O)=O)c1F
pEC50: 8.33
//
Compound: CS(=N)(=O)c1ccccc1-c1ccc(N2CC[C@@H](NC(=O)Nc3ccc(C(F)(F)F)cc3F)C2=O)c(F)c1F (some centres unmarked)
pEC50: 8.31

a: CP(C)(=O)c1c(F)cccc1-c1ccc(N2CC[C@@H](NC(=O)Nc3ccc(Cl)cc3F)C2=O)c(F)c1Cl
b: CP(C)(=O)c1ccccc1-c1ccc(N2CC[C@@H](NC(=O)Nc3ccc(Cl)cn3)C2=O)c(F)c1F
c: CC(C)c1cc(-c2ccccc2P(C)(C)=O)ccc1N1CC[C@@H](NC(=O)Nc2ncc(Cl)cc2F)C1=O
d: COC[C@@H]1C[C@@H](NC(=O)Nc2ccc(Cl)cc2F)C(=O)N1c1ccc(-c2ccccc2P(C)(C)=O)c(F)c1F
Arrange these 4 compounds in increasing order of pEC50. // format: requested-order list of labels
c, b, a, d

P: CP(C)(=O)c1ccccc1-c1ccc(N2CC3(CC3)[C@@H](NC(=O)Nc3ccc(Cl)cc3F)C2=O)c(F)c1F
Q: CP(C)(=O)c1ccccc1-c1ccc(N2CC(CO)[C@@H](NC(=O)Nc3ccc(Cl)cc3F)C2=O)c(F)c1F (some centres unmarked) [Example 125]
I need your help: which of the pair P , Q has higher pEC50? Answer = label.
P

1: CP(C)(=O)c1ccccc1-c1ccc(N2CC[C@@H](NC(=O)Nc3ccc(Cl)cc3F)C2=O)c(F)c1C(F)(F)F
2: COc1ccc(NC(=O)N[C@@H]2CCN(c3ccc(-c4ccccc4P(C)(C)=O)c(F)c3F)C2=O)c(F)c1
3: O=C(Nc1ccc(Cl)cc1F)N[C@@H]1CCN(c2ccc(-c3ccccc3CO)c(F)c2F)C1=O
4: CP(C)(=O)c1ccccc1-c1ccc(N2CC[C@@H](NC(=O)Nc3ccc(Cl)cc3F)C2=O)c(F)c1C(F)F
Arrange these 4 compounds in increasing order of pEC50. // format: requested-order list of labels
4, 3, 2, 1
(4: 7.49, 3: 8.38, 2: 8.68, 1: 9.39)

---

# Target Desc: UniProt P21462
# Procedure Text: FPR1 cyclic adenosine monophosphate (cAMP) assay
# Condition Context: CHO cells overexpressing human FPR1; forskolin 10 μM, IBMX 200 μM; inhibition of cAMP production, HTRF; read-out: hFPR1 cAMP EC50
Measured Property: EC50 (nM)

Illustrative cases are given below, each with its answer.
Compound: CS(=O)(=O)Nc1ccccc1-c1ccc(N2CC[C@@H](NC(=O)Nc3ccc(Cl)cc3F)C2=O)c(C2CC2)c1
Measured Property: EC50
Measure Unit: nM
Recorded Number: 47
--
Compound: CC1(C)CN(c2ccc(-c3ccccc3P(C)(C)=O)c(F)c2F)C(=O)[C@@H]1NC(=O)Nc1ccc(Cl)cc1F
Measured Property: EC50
Measure Unit: nM
Recorded Number: 350
--
Compound: CS(=N)(=O)c1ccccc1-c1ccc(N2CC[C@@H](NC(=O)Nc3ccc(Cl)cc3F)C2=O)c(F)c1F (stereo partly drawn) [Example 58]
Measured Property: EC50
Measure Unit: nM
Recorded Number: 610
--
Compound: COc1ccc(NC(=O)N[C@@H]2CCN(c3ccc(-c4ccccc4P(C)(C)=O)c(F)c3F)C2=O)cc1
Measured Property: EC50
Measure Unit: nM
Recorded Number: 2600

A: CC(C)c1cc(-c2ccccc2NS(C)(=O)=O)ccc1N1CC[C@@H](NC(=O)Nc2ccc(Cl)cc2F)C1=O
B: CC1(C)CN(c2ccc(-c3ccccc3P(C)(C)=O)c(F)c2F)C(=O)[C@@H]1NC(=O)Nc1cnc(Cl)cn1
C: CP(C)(=O)c1ccccc1-c1ccc(N2CC3(CC3)[C@@H](NC(=O)Nc3ccc(Cl)cc3F)C2=O)c(F)c1F
Output the entries ranked by EC50 from maximum down to minimum. // format: requested-order list of labels
B, A, C

P: CS(=O)(=O)c1ccccc1-c1ccc(N2CC[C@@H](NC(=O)Nc3ccc(Cl)cn3)C2=O)c(F)c1F
Q: CP(C)(=O)c1ccccc1-c1ccc(N2CC[C@@H](NC(=O)Nc3ccc(Cl)cc3F)C2=O)c(F)c1C(F)(F)F
Given the listed items, does P or Q have the lesser reported EC50? Answer = label.
Q
